Just for reference, patent US20260055079A1 is where these values come from.

We begin with a simple list: items and their reported GI50.
System: NCI-H1373 (human lung adenocarcinoma) cells
experimental.details: Cell proliferation assay (CellTiter-Glo), NCI-H1373
Format: cell-based
condition.notes: Homo sapiens, NCI-H1373, 144 h; 6 days, CellTiter-Glo; read-out: NCI-H1373 GI50

compound: Cc1cc(N2CCN(C(=O)c3cc(Cc4n[nH]c(=O)c5ccc(OC6CCC6)cc45)ccc3F)CC2)ncc1C#N [Example 134]
GI50: < 0.1 µM
--
compound: C#CCNc1ccc2c(=O)[nH]nc(Cc3ccc(F)c(C(=O)N4CCn5c(nnc5C(F)(F)F)C4)c3)c2c1 [Example 185]
GI50: > 5 µM
--
compound: O=C(c1cc(Cc2n[nH]c(=O)c3ccc(OC4CCC4)cc23)ccc1F)N1CCN(c2ncc(C(F)(F)F)cn2)CC(F)(F)C1 [Example 126]
GI50: 0.1 to 1 µM
--
compound: O=C(c1cc(Cc2n[nH]c(=O)c3ccc(OC4CCC4)cc23)ccc1F)N1CCN(c2ccc(C(F)(F)F)nn2)CC1 [Example 158]
GI50: 1 to 5 µM
--
compound: CC#Cc1ccc2c(=O)[nH]nc(Cc3ccc(F)c(C(=O)N4CCN(c5ccc(C#N)cn5)CC4)c3)c2c1OC [Example 81]
GI50: < 0.1 µM

Could you share which GI50 value was measured for N#Cc1cnc(N2CCN(C(=O)c3cc(Cc4n[nH]c(=O)c5ccc(OC6CCC6)cc45)ccc3F)CC2)c(C(F)(F)F)c1 [Example 129] ?
1 to 5 µM
